src = patent US20170152313A1

- test-target: Human LOX-1 full-length protein (human, UniProt P78380 1-273)
- protocol-description: cell-based or functional assay
measure-name: Reactive oxygen species (ROS) generation in huLOX-1/HEK293 cells (IC50, nM)
Give the value in nM but do not write nM after it.

Query: Please look up its Reactive oxygen species (ROS) generation in huLOX-1/HEK293 cells (IC50, nM): FF1 (antibody, human IgG1, kappa, L234A L235A, V domains shown, Humaneered variant of E2E10, tested as full human IgG (captured or detected with anti-human IgG); Biotinylated for the neutrophil assay; also called LLG783; LLG783 (FF1)) VH: QVQLVQSGAEVKKPGASVKVSCKASGYTFTDYEVHWVRQAPGQGLEWMGAIHPGSGGAAYVQKFQGRVTMTRDTSTSTAYMELSSLRSDDTAVYYCARWLPMDYWGQGTLVTVSS VL: DIQMTQSPSSVSASVGDRVTITCRASQGINNWLVWYQQKPGKAPKLLIYAASSLQSGVPSRFSGSGSGADYTLTISSLQPEDFATYYCQQYLITPYTFGQGTKLEIKR
Reply: 6

Query: Please look up its Reactive oxygen species (ROS) generation in huLOX-1/HEK293 cells (IC50, nM): E2E10 (murine parental) (antibody, IgG1, V domains shown, Mouse hybridoma monoclonal antibody, IgG1 with a kappa light chain; Biotinylated in the SET and neutrophil assays; also called Clone 39.1E2E10; mouse parental) VH: QVQLQQSGAELVRPGASVKLSCKALGYTFTDYEMHWVKQTPVHGLEWIGAIHPGSGGAAYIQKFKGKATLTADKSSSTAHMELSSLTSEDSAVYYCTRWLPMDYWGQGTSVTVSS VL: DIQMTQSSSYLSVSLGGRVTITCKASDHINNWLAWYQQKPGNAPRLLISGATSLETGVPSRFSGSGSGKDYTLSITGLQTEDVATYYCQQYLITPYTFGGGTKLEIK
Reply: 5.7
